Experiment: Experimental aqueous solubility (UV spectrophotometry of saturated solutions)
Assay type: physicochemical
Settings: water (saturated solution); logSm calculated based on solubility Sm (mol/L); read-out: Experimental Aqueous Solubility logSm (converted)
measurement_kind: solubility at 24 h (µM)
Give bare numbers, in µM.

# input Report solubility at 24 h for CC(C)(C)C(=O)C[Se]C(=O)c1ccc(Cl)cc1 [EDA-73] please.
# output 3.16

###

Assay: Chemical stability in acidic and alkaline environments (TLC-monitored)
Format: physicochemical
Details: 2 mg/mL in methanol + 10% NaOH 1:1; TLC at 10 min, 1, 2, 3, 24, 48 h
measurement_kind: chemical stability in the alkaline environment

# input Report chemical stability in the alkaline environment for C[Se]C(=O)c1cccc(C(=O)[Se]C)c1 [EDA-120] please.
# output totally unstable

# input Let us now turn to C[Se]C(=O)c1ccc(C(=O)[Se]C)cc1 [EDA-109]
# output totally unstable

# input Let us now turn to COC(=O)C[Se]C(=O)c1cc(OC)c(OC)c(OC)c1 [EDA-26]
# output totally unstable

###

Assay: Experimental aqueous solubility (UV spectrophotometry of saturated solutions)
Type: physicochemical
Conditions: water (saturated solution), 20 °C, water, thermodynamic from solid; logSm calculated based on solubility Sm (mol/L); read-out: Experimental Aqueous Solubility logSm (converted)
Field: solubility at 24 h. Provide a value for each of the molecules that follow.
Give bare numbers, in µM.

# input Report solubility at 24 h for `COC(=O)C[Se]C(=O)c1cc(OC)c(OC)c(OC)c1` please.
# output 1100

# input Let us now turn to O=C(C[Se]C(=O)c1ccccc1)Oc1ccccc1 [EDA-93, phenyl 2-(benzoylselanyl)acetate]
# output 69.2

# input Let us now turn to `COc1cc(OC)cc(C(=O)[Se]CC(=O)C(C)(C)C)c1`
# output 55

# input Let us now turn to `C[Se]C(=O)c1cccc(C(=O)[Se]C)n1`
# output 427

// next item, solubility at 24 h requested
# input Report solubility at 24 h for `C[Se]C(=O)c1ccc(C(=O)[Se]C)s1` please.
# output 95.5

###

Test system: Salmonella Typhimurium TA100 strain
Conditions: 1 µM; TA100; alert ≥ 2.0
Classes (Fold Increase over Baseline): lower band (below 0.6), central band (0.6 to below 1), upper band (1 or more)

# input Class? Entry: `C[Se]C(=O)c1ccc(C(=O)[Se]C)cc1`
# output lower band

# input Let us now turn to NC(=O)C[Se]C(=O)c1ccccc1 [EDA-117, Se-carbamoylmethyl benzoselenoate]
# output lower band

# input Let us now turn to COC(=O)C[Se]C(=O)c1ccccc1 [EDA-53, methyl 2-(benzoylselanyl)acetate]
# output upper band

New cases:
# input Class? Entry: `COC(=O)C[Se]C(=O)Cc1ccccc1`
# output central band

# input Let us now turn to `COC(=O)C[Se]C(=O)c1cc(OC)c(OC)c(OC)c1`
# output central band

# input Let us now turn to `CC(C)(C)C(=O)C[Se]C(=O)c1ccc(Cl)cc1`
# output central band

###

Test system: Salmonella Typhimurium TA100 strain
Conditions: 10 µM; TA100; alert ≥ 2.0
Method: Safety profiles were evaluated using an in vitro microbiological method adapted to the microplate Ames test (384-well microtitration plate), which applies Salmonella enterica serovar Typhimurium bacterial strains (the gold standard in mutagenicity research). […] The reversion events were counted both manually and by means of a microplate reader. […] In the next step of the studies, the in vitro safety profiles of the tested selenocompounds were evaluated. […]
Field: Fold Increase over Baseline. Provide a value for each of the compounds that follow.
Give bare numbers.

Please review the entries below; each comes with its answer.
# input Report Fold Increase over Baseline for `COC(=O)C[Se]C(=O)c1cc(OC)cc(OC)c1` please.
# output 1.78

# input Let us now turn to `COC(=O)C[Se]C(=O)c1ccccc1Cl`
# output 1.00

# input Let us now turn to `CC(C)(C)C(=O)C[Se]C(=O)c1ccc(Cl)cc1`
# output 0.52

Would you be so kind as to report Fold Increase over Baseline for each listed record?
1. NC(=O)C[Se]C(=O)c1ccccc1 [EDA-117, Se-carbamoylmethyl benzoselenoate]
2. C[Se](=O)O [MetSeAc, methylseleninic acid, reference compound]

# output
[0.42, 0.74]

###

Test: Experimental aqueous solubility (UV spectrophotometry of saturated solutions)
Assay type: physicochemical
Details: water (saturated solution), thermodynamic from solid; water, room temperature (20° C), after 24 h, average of 3; read-out: Experimental Aqueous Solubility
measurement_kind: solubility at 24 h (µg/mL)
Give bare numbers, in µg/mL.

Please review the entries below; each comes with its answer.
# input Report solubility at 24 h for `C[Se]C(=O)c1cccc(C(=O)[Se]C)n1` please.
# output 137

# input Let us now turn to CC(=O)C[Se]C(=O)c1ccc(Cl)cc1 [EDA-71, Se-(2-oxopropyl) 4-chlorobenzoselenoate]
# output 132

# input Let us now turn to NC(=O)C[Se]C(=O)c1ccccc1 [EDA-117, Se-carbamoylmethyl benzoselenoate]
# output 1030

# input Let us now turn to `COc1cc(OC)cc(C(=O)[Se]CC(=O)C(C)(C)C)c1`
# output 19

# input Let us now turn to O=C1[Se]C(=O)c2ccccc21 [EDA-A6, benzo[c]selenophene-1,3-dione]
# output 758

# input Let us now turn to `COC(=O)C[Se]C(=O)c1cc(OC)c(OC)c(OC)c1`
# output 380

// next item, solubility at 24 h requested
# input Report solubility at 24 h for O=C(C[Se]C(=O)c1ccccc1)Oc1ccccc1 [EDA-93, phenyl 2-(benzoylselanyl)acetate] please.
# output 22

###

Assay: PAMPA membrane permeability test (capillary electrophoresis)
Format: in vitro ADME
Conditions: 50 μM in PBS pH 7.4, 5 h, room temperature, read-out: In Vitro Permeability
Field: Papp at 5 h, 50 µM. Provide a value for each of the molecules that follow.
Answers are plain numbers, in ×10⁻⁶ cm/s.

Please review the entries below; each comes with its answer.
# input Report Papp at 5 h, 50 µM for CCn1cc(C(=O)O)c(=O)c2cc(F)c(N3CCNCC3)cc21 [Norfloxacin, norfloxacin, reference compound] please.
# output 0.0949

# input Let us now turn to Cn1c(=O)c2c(ncn2C)n(C)c1=O [Caffeine, caffeine, reference compound]
# output 3.42

# input Let us now turn to COC(=O)C[Se]C(=O)c1cc(OC)cc(OC)c1 [EDA-58]
# output 2.22

# input Let us now turn to O=C1[Se]C(=O)c2ccccc21 [EDA-A6, benzo[c]selenophene-1,3-dione]
# output 3.44

# input Let us now turn to C[Se]C(=O)c1cccc(C(=O)[Se]C)n1 [EDA-119]
# output 3.27

New cases:
# input Report Papp at 5 h, 50 µM for C[Se]C(=O)c1ccc(C(=O)[Se]C)s1 [EDA-122] please.
# output 4.67

###

Tested on: Salmonella Typhimurium TA100 strain
Conditions: 1 µM; TA100; mutagenic if MI ≥ 2
Procedure: Safety profiles were evaluated using an in vitro microbiological method adapted to the microplate Ames test (384-well microtitration plate), which applies Salmonella enterica serovar Typhimurium bacterial strains (the gold standard in mutagenicity research). […] The reversion events were counted both manually and by means of a microplate reader. […] In the next step of the studies, the in vitro safety profiles of the tested selenocompounds were evaluated. […]
measurement_kind: MI (mutagenic index)
Give bare numbers.

# input Enter reported MI (mutagenic index) observed with Salmonella Typhimurium TA100 strain for `C[Se]C(=O)c1ccc(C(=O)[Se]C)cc1`
# output 0.96

# input Let us now turn to O=C(C[Se]C(=O)c1ccccc1)Oc1ccccc1 [EDA-93, phenyl 2-(benzoylselanyl)acetate]
# output 1.27

# input Let us now turn to `C[Se]C(=O)c1cccc(C(=O)[Se]C)n1`
# output 0.56

# input Let us now turn to NC(=O)C[Se]C(=O)c1ccccc1 [EDA-117, Se-carbamoylmethyl benzoselenoate]
# output 0.66

# input Let us now turn to `COC(=O)C[Se]C(=O)c1ccccc1Cl`
# output 1.56

Would you be so kind as to report MI (mutagenic index) for each listed record?
1. C[Se]C(=O)c1cccc(C(=O)[Se]C)c1
2. COC(=O)C[Se]C(=O)c1cc(OC)c(OC)c(OC)c1
3. COC(=O)C[Se]C(=O)c1ccccc1 [EDA-53, methyl 2-(benzoylselanyl)acetate]

# output
1: 1.24; 2: 1.51; 3: 1.82

###

Tested on: Salmonella Typhimurium TA100 strain
Details: 1 µM; TA100; alert ≥ 2.0
measurement_kind: Fold Increase over Baseline
Answers are plain numbers.

Please review the entries below; each comes with its answer.
# input Report Fold Increase over Baseline for COc1cc(OC)cc(C(=O)[Se]CC(=O)C(C)(C)C)c1 [EDA-74] please.
# output 0.98

# input Let us now turn to O=C(C[Se]C(=O)c1ccccc1)Oc1ccccc1 [EDA-93, phenyl 2-(benzoylselanyl)acetate]
# output 1.02

// next item, Fold Increase over Baseline requested
# input Report Fold Increase over Baseline for CC(=O)C[Se]C(=O)c1ccc(Cl)cc1 [EDA-71, Se-(2-oxopropyl) 4-chlorobenzoselenoate] please.
# output 0.60
